Experiment: Cytotoxicity against human MT4 cells and measured after 5 days by MTT assay
Type: toxicity, cell-based
Measured IC50 at 5 days of individual entries
Write the number in µM without appending the unit.

For this compound ( C=C1CC[C@@H]2OC(=O)C(C)=C2[C@@H]2[C@@H]1[C@@]13O[C@@]1([C@@H](Cl)[C@@H](C)[C@H]3OC(C)=O)[C@@H](O)[C@@]2(C)O ), measured IC50 at 5 days is 209

Measured IC50 at 5 days of C=C1CC[C@]2(O)OC(=O)C(C)=C2[C@@H]2[C@@H]1[C@@]13O[C@@]1(C[C@@H](C)[C@H]3O)[C@H]1O[C@@]21C : 510

Hey, just so you know, these numbers are from ChEMBL document CHEMBL5120903.
